System: CEM cells HIV-1 protection, formazan growth assay
Test summary: NCI AIDS Antiviral Assay

[
  {
    "Compound": "CCC(=O)Nc1nc2c(ncn2C2OC(COC(=O)CC)C(OC(=O)CC)C2OC(=O)CC)c(=O)[nH]1 (stereo unspecified)",
    "EC50": "> 355 µM"
  },
  {
    "Compound": "N#CC(C(=O)CCC(=O)Nc1cccc(C(F)(F)F)c1)c1ccccc1 (stereo unspecified)",
    "EC50": "> 692 µM"
  },
  {
    "Compound": "Nc1ncnc2c1ncn2C(=O)NC12CC3CC(CC(C3)C1)C2",
    "EC50": "> 100 µM"
  },
  {
    "Compound": "COC(=O)/C(C#N)=C1\\NC(=O)CC(c2ccccc2)C1C#N (stereo unspecified)",
    "EC50": "> 200 µM"
  },
  {
    "Compound": "CCOC(=O)c1cn2c([nH]c3ccccc32)c(C#N)c1=O",
    "EC50": "> 47.9 µM"
  },
  {
    "Compound": "COC1=CC(=O)C2C(C1=O)C(c1ccc(Cl)cc1)[C@@H]2C (stereo partly specified)",
    "EC50": "> 170 µM"
  }
]

---

Items are presented alongside their recorded pIC50.
Test system: CEM cells HIV-1 protection, formazan growth assay
Test summary: NCI AIDS Antiviral Assay
Condition: measured here: growth of uninfected CEM cells
pIC50: −log10 of the molar value.

[
  {
    "Compound": "C/C(C=C(C#N)C#N)=C\\c1ccc([N+](=O)[O-])cc1",
    "Tested on": "CEM cells HIV-1 protection, formazan growth assay",
    "Result comparator": "<",
    "pIC50": 4.94
  },
  {
    "Compound": "O=C(OC1C#CCSCC#C/C=C\\1)c1ccc2c(c1)C(=O)c1ccccc1C2=O (stereo unspecified)",
    "Tested on": "CEM cells HIV-1 protection, formazan growth assay",
    "Result comparator": "=",
    "pIC50": 4.16
  },
  {
    "Compound": "C/C(=N\\NC(=O)c1ccccc1O)c1c(O)cc(C)oc1=O",
    "Tested on": "CEM cells HIV-1 protection, formazan growth assay",
    "Result comparator": "=",
    "pIC50": 4.15
  },
  {
    "Compound": "CCOC(=O)C1=CN/C(=C(/C)C(=O)OC)SC1C(=O)OCC (stereo unspecified)",
    "Tested on": "CEM cells HIV-1 protection, formazan growth assay",
    "Result comparator": "=",
    "pIC50": 4.43
  },
  {
    "Compound": "Cc1nn2c(nnn2CCO)c1-c1ccccc1",
    "Tested on": "CEM cells HIV-1 protection, formazan growth assay",
    "Result comparator": "=",
    "pIC50": 3.39
  },
  {
    "Compound": "CCOC(=O)C(=O)NCCCN1CCOCC1",
    "Tested on": "CEM cells HIV-1 protection, formazan growth assay",
    "Result comparator": "<",
    "pIC50": 2.99
  }
]

---

Tested on: CEM cells HIV-1 protection, formazan growth assay
Test summary: NCI AIDS Antiviral Assay;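 active = compounds giving half or more protection of infected cells from virus-caused growth loss, again on retest; inactive = the rest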
Procedure: The ability of compounds to protect human CEM cells from HIV-1 infection is measured as a screen for new compounds capable of inhibiting the HIV virus. Five concentrations of drug were tested on uninfected and infected cells and cell growth was measured using a soluble formazan assay. […] Compounds that provided at least 50% protection were retested. Compounds that provided at least 50% protection on retest were listed as moderately active. […]
Outcome codes: 1 (active), -1 (inactive)

[
  {
    "Compound": "COc1ccc(-c2csc3c2-n2cccc2C3=O)cc1",
    "Label": -1
  },
  {
    "Compound": "O=[N+]([O-])c1ccc(-n2nnc3ccccc32)nc1",
    "Label": -1
  },
  {
    "Compound": "CC(SC(C)C(=O)N/N=C/c1ccc(B(O)O)cc1)C(=O)N/N=C\\c1ccc(B(O)O)cc1 (centres undefined)",
    "Label": -1
  },
  {
    "Compound": "CCCCCCCCCCCCCCCCOC1OC(COC(C)=O)C(OC(C)=O)C(OC(C)=O)C1O (centres undefined)",
    "Label": -1
  },
  {
    "Compound": "O=C(NCC(O)COc1ccccc1)c1ccccc1O (centres undefined)",
    "Label": -1
  },
  {
    "Compound": "O=C1C=C(O)c2ccccc2C1=O",
    "Label": -1
  },
  {
    "Compound": "COC(=O)c1c(O)c(C#N)c2[nH]c3ccccc3n2c1=O",
    "Label": -1
  },
  {
    "Compound": "Oc1c(C(O)N2CCOCC2)cc(C(O)N2CCOCC2)c(O)c1O (centres undefined) (tested in a mixture with another compound)",
    "Label": -1
  },
  {
    "Compound": "COc1cc(OC)c2c(=O)c3c([N+](=O)[O-])cccc3n(C)c2c1",
    "Label": -1
  },
  {
    "Compound": "COC1N(C2C=CC(CO)O2)C(=O)NC(=O)C1(C)Cl (centres undefined)",
    "Label": 1
  },
  {
    "Compound": "Cc1nccn1Cc1c(N)nc(N)[nH]c1=O",
    "Label": -1
  },
  {
    "Compound": "COc1cncn2nc(C)nc12",
    "Label": -1
  },
  {
    "Compound": "CCOC(=O)c1nc2ccc(Cl)cc2c2c1CCO2",
    "Label": -1
  },
  {
    "Compound": "COC(=O)C1=C2Nc3ccccc3C23CCN2CCC(=O)C[C@H](C1)[C@@H]23 (some centres undefined)",
    "Label": -1
  },
  {
    "Compound": "S=C1N=C(Cl)/C(=C\\c2ccccc2)N1",
    "Label": -1
  },
  {
    "Compound": "COc1cc(/C=C2\\SC(=S)N(C=C3C(=O)NC(=O)NC3=O)C2=O)cc(OC)c1OC",
    "Label": -1
  },
  {
    "Compound": "Nc1nc2c3nc(Nc4ccccc4)sc3nc(=O)n2c2sc(Nc3ccccc3)nc12",
    "Label": -1
  },
  {
    "Compound": "Cc1cc2[nH]c3c(C#N)c(O)c(C)c(=O)n3c2cc1C",
    "Label": -1
  },
  {
    "Compound": "COc1ccc(C2[C@H]3C(=O)N(c4ccc(Cc5ccc(N6C(=O)[C@@H]7ON(c8ccccc8)C(c8ccc(OC)cc8)[C@@H]7C6=O)cc5)cc4)C(=O)[C@H]3ON2c2ccccc2)cc1 (some centres undefined)",
    "Label": -1
  },
  {
    "Compound": "ClC1(Cl)C2(Cl)C3(Cl)C4C2(Cl)C2(Cl)C4(Cl)C3(Cl)C12Cl (centres undefined)",
    "Label": -1
  },
  {
    "Compound": "CC(C)c1nc2c(Cl)c3ncccc3cc2[nH]c1=O",
    "Label": -1
  },
  {
    "Compound": "CCOC(=O)[C@H]1Nc2ccc([N+](=O)[O-])cc2C2c3ccccc3CC21 (some centres undefined)",
    "Label": -1
  },
  {
    "Compound": "CC1=NNC(=O)C1C1CC(c2c[nH]c3ccccc23)=NNC1=O (centres undefined)",
    "Label": -1
  },
  {
    "Compound": "N/C(=N\\N=C\\c1ccc2c(c1)OCO2)NO",
    "Label": -1
  },
  {
    "Compound": "O=C1/C(=C/c2ccc(O)c(O)c2)CCc2ccccc21",
    "Label": -1
  },
  {
    "Compound": "CCOC(=O)c1sc2c(c1O)c(=O)n(-c1ccccc1)c(=S)n2-c1ccccc1",
    "Label": -1
  },
  {
    "Compound": "CCOC(=O)C(CCc1ccccn1)C(C)=O (centres undefined)",
    "Label": -1
  },
  {
    "Compound": "Brc1c(C#CCC2CCCCC2)ccc(C#CCC2CCCCC2)c1Br",
    "Label": -1
  },
  {
    "Compound": "NC12CC3CC(C1)CC(C(=O)O)(C3)C2",
    "Label": -1
  },
  {
    "Compound": "CC12CC3C(CC1SCC(=O)O2)C3(C)C (centres undefined)",
    "Label": -1
  },
  {
    "Compound": "CC1C2(C)OC(=N)C(C#N)(C(c3ccco3)O2)C1(C#N)C#N (centres undefined)",
    "Label": -1
  },
  {
    "Compound": "[N-]=[N+]=C1C(=O)NCN=C1c1ccccc1",
    "Label": -1
  },
  {
    "Compound": "CC(=O)Nc1cc(S(=O)(=O)O)cc2cc(S(=O)(=O)O)cc(O)c12",
    "Label": -1
  },
  {
    "Compound": "CC(C)(C)c1cc(C(C)(C)C)c(N=O)c(C(C)(C)C)c1",
    "Label": -1
  },
  {
    "Compound": "CC1C/C(=N\\N(C)C)C(C#N)(C#N)C1(C#N)C#N (centres undefined)",
    "Label": -1
  },
  {
    "Compound": "CC(=O)OC1CSc2ccccc2N(C(C)=O)C1 (centres undefined)",
    "Label": -1
  },
  {
    "Compound": "COc1cc(N=Nc2ccc(S(=O)(=O)O)cc2)c(C)cc1N=Nc1cc(S(=O)(=O)O)c(NC(=O)c2ccc(N)cc2)cc1NC(C)=O",
    "Label": 1
  },
  {
    "Compound": "[O-][n+]1cc(SCc2ccccc2)ncc1SCc1ccccc1",
    "Label": -1
  },
  {
    "Compound": "CCOC(=O)C(C(=O)OCC)=C1SC(=Nc2ccccc2)C(=Nc2ccccc2)N1c1ccccc1",
    "Label": -1
  },
  {
    "Compound": "COc1cc(/C=N/NC2=NCCN2)ccc1O",
    "Label": -1
  },
  {
    "Compound": "FC(F)C(F)(F)C(F)(F)C(F)(F)C(F)(F)C(F)(F)COC(OCC(F)(F)C(F)(F)C(F)(F)C(F)(F)C(F)(F)C(F)F)OCC(F)(F)C(F)(F)C(F)(F)C(F)(F)C(F)(F)C(F)F",
    "Label": -1
  },
  {
    "Compound": "O=CN1CCN(C=O)C(O)C1O (centres undefined)",
    "Label": -1
  },
  {
    "Compound": "CCN1C(=O)c2cc(OC)c(OC)cc2C(=O)C12OC(=O)c1cc3c(cc12)OCO3 (centres undefined)",
    "Label": -1
  },
  {
    "Compound": "CC(C)S1=C2C(=O)CC(C)(C)CC2=Nc2ccccc21 (centres undefined)",
    "Label": -1
  }
]
